- Measurement Target: IKZF2 (Homo sapiens, UniProt Q96SW2+Q9UKS7)
- Construct: expressed in transfected cells
- Sequence (Q9UKS7 1-500 isoform Q9UKS7-2): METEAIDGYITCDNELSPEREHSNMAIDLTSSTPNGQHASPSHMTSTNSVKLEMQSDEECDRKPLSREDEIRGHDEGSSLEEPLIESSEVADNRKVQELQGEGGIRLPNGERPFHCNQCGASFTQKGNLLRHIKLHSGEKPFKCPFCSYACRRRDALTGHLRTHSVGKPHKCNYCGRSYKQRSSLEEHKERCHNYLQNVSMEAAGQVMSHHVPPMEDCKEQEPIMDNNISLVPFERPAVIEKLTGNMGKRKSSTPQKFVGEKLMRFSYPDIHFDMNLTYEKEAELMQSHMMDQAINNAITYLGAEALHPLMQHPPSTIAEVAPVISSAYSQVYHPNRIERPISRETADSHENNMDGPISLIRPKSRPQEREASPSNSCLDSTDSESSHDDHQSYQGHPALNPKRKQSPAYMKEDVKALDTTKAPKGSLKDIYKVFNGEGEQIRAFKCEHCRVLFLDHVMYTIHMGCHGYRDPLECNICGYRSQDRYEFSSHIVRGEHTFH
- Sequence (Q96SW2 whole entry): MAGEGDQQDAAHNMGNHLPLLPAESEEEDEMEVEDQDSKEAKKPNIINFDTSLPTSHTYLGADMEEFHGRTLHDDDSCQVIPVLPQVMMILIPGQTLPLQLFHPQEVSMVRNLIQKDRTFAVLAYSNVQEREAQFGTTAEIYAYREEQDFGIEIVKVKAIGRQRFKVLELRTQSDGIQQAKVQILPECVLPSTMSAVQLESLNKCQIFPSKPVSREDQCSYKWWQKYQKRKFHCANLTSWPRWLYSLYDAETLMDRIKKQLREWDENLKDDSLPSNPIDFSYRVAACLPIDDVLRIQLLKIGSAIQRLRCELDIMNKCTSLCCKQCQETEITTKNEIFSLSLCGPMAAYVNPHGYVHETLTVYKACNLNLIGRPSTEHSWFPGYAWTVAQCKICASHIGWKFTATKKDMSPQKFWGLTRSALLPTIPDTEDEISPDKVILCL
- Sequence (Q16531 whole entry partner): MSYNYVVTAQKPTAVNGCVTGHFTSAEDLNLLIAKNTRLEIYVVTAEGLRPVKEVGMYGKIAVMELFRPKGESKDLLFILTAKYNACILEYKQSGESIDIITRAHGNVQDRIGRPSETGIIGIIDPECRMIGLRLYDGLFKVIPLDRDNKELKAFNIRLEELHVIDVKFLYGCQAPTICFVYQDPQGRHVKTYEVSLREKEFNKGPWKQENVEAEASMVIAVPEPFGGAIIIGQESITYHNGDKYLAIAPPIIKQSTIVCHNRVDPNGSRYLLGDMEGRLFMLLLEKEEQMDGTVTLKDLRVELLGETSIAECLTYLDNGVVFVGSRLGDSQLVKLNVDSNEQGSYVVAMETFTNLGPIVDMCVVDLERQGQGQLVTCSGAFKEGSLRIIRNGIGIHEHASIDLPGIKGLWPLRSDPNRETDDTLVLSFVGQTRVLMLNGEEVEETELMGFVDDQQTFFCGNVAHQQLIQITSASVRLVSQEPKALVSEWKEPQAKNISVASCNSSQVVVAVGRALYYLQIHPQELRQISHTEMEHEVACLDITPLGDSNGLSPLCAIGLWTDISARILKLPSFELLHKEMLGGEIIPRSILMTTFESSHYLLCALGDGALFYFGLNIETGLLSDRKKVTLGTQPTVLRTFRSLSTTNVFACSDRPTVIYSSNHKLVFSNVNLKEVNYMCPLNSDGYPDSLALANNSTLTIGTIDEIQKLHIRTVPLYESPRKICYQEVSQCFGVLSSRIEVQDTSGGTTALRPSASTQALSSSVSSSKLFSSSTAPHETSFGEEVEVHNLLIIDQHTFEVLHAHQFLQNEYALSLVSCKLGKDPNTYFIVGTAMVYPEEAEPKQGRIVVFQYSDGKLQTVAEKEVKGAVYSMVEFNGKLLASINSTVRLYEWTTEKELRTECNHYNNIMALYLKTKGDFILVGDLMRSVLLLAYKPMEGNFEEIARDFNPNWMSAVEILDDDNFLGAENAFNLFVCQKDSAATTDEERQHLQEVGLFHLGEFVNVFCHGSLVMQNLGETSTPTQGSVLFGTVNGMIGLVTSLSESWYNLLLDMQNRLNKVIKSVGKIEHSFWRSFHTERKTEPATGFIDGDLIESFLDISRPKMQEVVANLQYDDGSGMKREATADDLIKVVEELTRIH
- Measurement Notes: HiBiT protein tagging assay, in vitro IKZF2 degradation (HEK293)
- Format: cell-based
- Condition Notes: HEK293, HiBiT assay, HEK293, 18-24 hr incubation, normalized to DMSO control; read-out: IKZF2 Dmax (maximum degradation at the highest concentration tested)

>  <Compound>
O=C1CCC(N2Cc3cc(CN[C@@H]4CCCN(C(c5ccccc5)C(F)(F)F)C4)ccc3C2=O)C(=O)N1 (stereo partly drawn) [Example 123]

>  <Dmax / %>
87

$$$$
>  <Compound>
CC1(C)CCC(NCc2ccc3c(c2)CN(C2CCC(=O)NC2=O)C3=O)CC1 (stereo not drawn) [Example 140]

>  <Dmax / %>
86

$$$$
>  <Compound>
O=C1CCC(N2Cc3cc(CN[C@H]4CCC[C@@H](Cc5ccccc5)C4)ccc3C2=O)C(=O)N1 (relative stereo) [Example 12]

>  <Dmax / %>
96

$$$$

* * *

- Measurement Target: IKZF1 (Homo sapiens, UniProt Q13422+Q96SW2)
- Construct: expressed in transfected cells
- Sequence (Q13422 whole entry, one chain of several): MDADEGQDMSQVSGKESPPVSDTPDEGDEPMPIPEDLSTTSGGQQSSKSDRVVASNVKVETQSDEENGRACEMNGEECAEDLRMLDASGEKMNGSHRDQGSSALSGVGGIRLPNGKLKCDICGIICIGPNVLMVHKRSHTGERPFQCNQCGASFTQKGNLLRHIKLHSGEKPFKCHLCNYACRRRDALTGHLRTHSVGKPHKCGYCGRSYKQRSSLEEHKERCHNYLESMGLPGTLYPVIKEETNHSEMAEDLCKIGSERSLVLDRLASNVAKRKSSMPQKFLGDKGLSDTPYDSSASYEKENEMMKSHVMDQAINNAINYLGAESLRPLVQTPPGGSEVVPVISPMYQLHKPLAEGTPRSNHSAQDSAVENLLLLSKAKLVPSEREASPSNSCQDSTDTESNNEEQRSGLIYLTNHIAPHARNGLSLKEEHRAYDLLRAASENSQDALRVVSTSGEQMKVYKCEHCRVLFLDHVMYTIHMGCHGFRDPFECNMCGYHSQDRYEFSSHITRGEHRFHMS
- Measurement Notes: HiBiT protein tagging assay, in vitro IKZF1 degradation (HEK293)
- Format: cell-based
- Condition Notes: HEK293, 18-24 hr incubation, normalized to DMSO control, read-out: IKZF1 EC50
Catalogue of log10 DC50 readings, one per entry.
Recorded Metric: log10 DC50 (log10 of the value in nM)

>  <Molecule>
CC1CCC(C)(NCc2ccc3c(c2)CN(C2CCC(=O)NC2=O)C3=O)CC1 (stereo not drawn)

>  <log10 DC50>
2.19

$$$$
>  <Molecule>
CO[C@H]1CC[C@@H](NCc2ccc3c(c2)CN(C2CCC(=O)NC2=O)C3=O)CC1 (stereo partly drawn)

>  <log10 DC50>
1.85

$$$$
>  <Molecule>
O=C1CCC(N2Cc3cc(CN[C@@H]4C[C@H](F)CN(Cc5ccccc5)C4)ccc3C2=O)C(=O)N1 (stereo partly drawn)

>  <log10 DC50>
1.48

$$$$
>  <Molecule>
O=C1CCC(N2Cc3cc(CNC4CC5CCC(C5)C4)ccc3C2=O)C(=O)N1 (stereo not drawn)

>  <log10 DC50>
1.87

$$$$
>  <Molecule>
O=C1CCC(N2Cc3cc(CNC4CCOCC4)ccc3C2=O)C(=O)N1 (stereo not drawn)

>  <log10 DC50>
2.17

$$$$
>  <Molecule>
O=C1CCC(N2Cc3cc(CNC4CCCC(CO)C4)ccc3C2=O)C(=O)N1 (stereo not drawn)

>  <log10 DC50>
3.71

$$$$
>  <Molecule>
O=C1CCC(N2Cc3cc(CNC4CCN(c5ccncc5)CC4)ccc3C2=O)C(=O)N1 (stereo not drawn)

>  <log10 DC50>
2.82

$$$$
>  <Molecule>
O=C1CCC(N2Cc3cc(CN[C@@H]4CCCN(Cc5ccccc5)C4)ccc3C2=O)C(=O)N1 (stereo partly drawn)

>  <log10 DC50>
0.85

$$$$
>  <Molecule>
CC[C@H]1CCCC[C@H]1NCc1ccc2c(c1)CN(C1CCC(=O)NC1=O)C2=O (stereo partly drawn)

>  <log10 DC50>
2.08

$$$$
>  <Molecule>
O=C1CCC(N2Cc3cc(CN[C@@H]4CCC[C@H](Cc5ccccc5Cl)C4)ccc3C2=O)C(=O)N1 (stereo partly drawn)

>  <log10 DC50>
0.48

$$$$
>  <Molecule>
O=C1CCC(N2Cc3cc(CN[C@H]4CCc5ccccc5C4)ccc3C2=O)C(=O)N1 (stereo partly drawn)

>  <log10 DC50>
1.49

$$$$
>  <Molecule>
O=C1CCC(N2Cc3cc(CN[C@@H]4CCCN(Cc5ccccn5)C4)ccc3C2=O)C(=O)N1 (stereo partly drawn)

>  <log10 DC50>
1.68

$$$$
>  <Molecule>
O=C1CCC(N2Cc3cc(CNC4CCC(Oc5ccccc5)CC4)ccc3C2=O)C(=O)N1 (stereo not drawn)

>  <log10 DC50>
1.36

$$$$
>  <Molecule>
O=C1CCC(N2Cc3cc(CNC4CCN(c5ccccn5)CC4)ccc3C2=O)C(=O)N1 (stereo not drawn)

>  <log10 DC50>
1.45

$$$$
>  <Molecule>
O=C1CCC(N2Cc3cc(CNC4CCN(Cc5ccccc5)CC4)ccc3C2=O)C(=O)N1 (stereo not drawn)

>  <log10 DC50>
2.41

$$$$
>  <Molecule>
CC1(C)CCCC(NCc2ccc3c(c2)CN(C2CCC(=O)NC2=O)C3=O)C1 (stereo not drawn)

>  <log10 DC50>
1.96

$$$$
>  <Molecule>
CO[C@H]1CCCC[C@H]1NCc1ccc2c(c1)CN(C1CCC(=O)NC1=O)C2=O (stereo partly drawn)

>  <log10 DC50>
2.20

$$$$
>  <Molecule>
O=C1CCC(N2Cc3cc(CN[C@@H]4CCCN(CCc5ccccc5)C4)ccc3C2=O)C(=O)N1 (stereo partly drawn)

>  <log10 DC50>
2.01

$$$$
>  <Molecule>
O=C1CCC(N2Cc3cc(CNC4CCN(C(=O)c5ccccc5)CC4)ccc3C2=O)C(=O)N1 (stereo not drawn)

>  <log10 DC50>
2.39

$$$$
>  <Molecule>
N#CC[C@H]1CC[C@H](NCc2ccc3c(c2)CN(C2CCC(=O)NC2=O)C3=O)CC1 (stereo partly drawn)

>  <log10 DC50>
2.78

$$$$
>  <Molecule>
O=C1CCC(N2Cc3cc(CNC4CCC5(CCCC5)CC4)ccc3C2=O)C(=O)N1 (stereo not drawn)

>  <log10 DC50>
1.81

$$$$
>  <Molecule>
C[C@H](c1ccccc1)N1CCC[C@@H](NCc2ccc3c(c2)CN(C2CCC(=O)NC2=O)C3=O)C1 (stereo partly drawn)

>  <log10 DC50>
0.70

$$$$
>  <Molecule>
CC1(C)C[C@]2(CC[C@H](NCc3ccc4c(c3)CN(C3CCC(=O)NC3=O)C4=O)CC2)CO1 (stereo partly drawn)

>  <log10 DC50>
2.33

$$$$
>  <Molecule>
CC(C)NCc1ccc2c(c1)CN(C1CCC(=O)NC1=O)C2=O (stereo not drawn)

>  <log10 DC50>
2.55

$$$$
>  <Molecule>
O=C1CCC(N2Cc3cc(CN[C@H]4CCC[C@@H](OCc5ccccc5)C4)ccc3C2=O)C(=O)N1 (stereo partly drawn)

>  <log10 DC50>
1.93

$$$$
>  <Molecule>
O=C1CCC(N2Cc3cc(CNCCc4ccccc4Cl)ccc3C2=O)C(=O)N1 (stereo not drawn)

>  <log10 DC50>
1.58

$$$$
>  <Molecule>
O=C1CCC(N2Cc3cc(CN[C@@H]4CCCC[C@@H]4CO)ccc3C2=O)C(=O)N1 (stereo partly drawn)

>  <log10 DC50>
2.58

$$$$
